Reference source: patent US20250019387A1

- Target Under Test: KRAS G12C and cRAF (Ras-binding domain) interaction (Homo sapiens (Human), UniProt P01116, C118S/C51S/C80L/G12C)
- Sequence (P01116 other isoform, or with tags, fused parts or gaps G12C/C51S/C80L/C118S): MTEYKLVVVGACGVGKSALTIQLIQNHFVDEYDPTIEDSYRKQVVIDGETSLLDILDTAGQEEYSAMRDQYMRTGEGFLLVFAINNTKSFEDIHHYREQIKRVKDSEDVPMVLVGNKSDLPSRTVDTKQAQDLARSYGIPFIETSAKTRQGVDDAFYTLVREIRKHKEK
- Run Description: Inhibition of KRAS G12C and cRAF binding (AlphaScreen)
- Cond: GMPPNP-loaded KRAS G12C, 19-20 hours incubation with compound; read-out: IC50 (Inhibition of KRAS G12C and cRAF Binding)
The following compounds are shown together with reported IC50 values.

# Compound, IC50
measured = [
    ("Cc1c(F)ccc2c(-c3ncc4c(N(C)[C@@H]5CCN(C(=O)/C=C/CN(C)C)C5)nc(OC[C@@]56CCCN5C[C@H](F)C6)nc4c3F)cccc12 [Example 281]", "100 to 500 nM"),
    ("C=CC(=O)CN(C)c1nc(OC[C@@H]2CCCN2C)nc2c1CCN(c1cccc3cccc(Cl)c13)C2 [Example 40]", "10 to 100 nM"),
    ("CN(c1nc(OC[C@@]23CCCN2C[C@H](F)C3)nc2c(F)c(-c3cccc4cccc(Cl)c34)ncc12)[C@@H]1CN(C(=O)/C=C/c2nc(C(C)(C)O)no2)C[C@H]1F [Example 217]", "> 500 nM"),
]

Given C=CC(=O)N1CC[C@@H](N(C)c2nc(OC[C@@]34CCCN3C[C@H](O)C4)nc3c(F)c(-c4cccc5cccc(Cl)c45)ncc23)C1 [Example 137] , respond with its IC50.
10 to 100 nM

Given CN(c1nc(OC[C@@]23CCCN2C[C@H](F)C3)nc2c(F)c(-c3cccc4cccc(Cl)c34)ncc12)[C@@H]1CCN(C(=O)C#CC2COCCN2)C1 (stereo partly drawn) [Example 238] , respond with its IC50.
10 to 100 nM

Given C#Cc1c(F)ccc2cccc(-c3ncc4c(N(C)[C@@H]5CCN(C(=O)/C=C/CN6CC[C@H](OC)C6)C5)nc(OC[C@@]56CCCN5C[C@H](F)C6)nc4c3F)c12 [Example 286] , respond with its IC50.
10 to 100 nM

Given C=CC(=O)C1CN(c2nc(OC[C@@H]3CCCN3C)nc3c2CCN(c2cccc4cccc(Cl)c24)C3)C1 [Example 41] , respond with its IC50.
10 to 100 nM

Given C=CC(=O)N1CC[C@@H](N(C)c2nc(OC[C@@]34CCCN3C[C@H](F)C4)nc3c(F)c(-c4cccc5cccc(C6CC6)c45)ncc23)C1 [Example 304] , respond with its IC50.
> 500 nM

Given CN(c1nc(OC[C@@]23CCCN2C[C@H](F)C3)nc2c1CCN(c1cccc3cccc(Cl)c13)C2)[C@@H]1CCN(C(=O)/C=C/c2nc(C(C)(C)C)no2)C1 [Example 148] , respond with its IC50.
100 to 500 nM

Given CN(c1nc(OC[C@@]23CCCN2C[C@H](F)C3)nc2c1CCN(c1cccc3cccc(Cl)c13)C2)[C@@H]1CCN(C(=O)/C=C/c2nc(C3(C)CC3)no2)C1 [Example 114] , respond with its IC50.
10 to 100 nM

Given C=CC(=O)C1[C@H]2CCN(c3nc(OC[C@@H]4CCCN4C)nc4c3CCN(c3cccc5cccc(Cl)c35)C4)C[C@@H]12 (stereo in doubt) [Example 43] , respond with its IC50.
10 to 100 nM

Given CN(c1nc(OCC23CCCN2CCC3)nc2c(F)c(-c3cccc4cccc(Cl)c34)ncc12)[C@@H]1CCN(C(=O)/C=C/c2nc(C3COC3)no2)C1 [Example 155] , respond with its IC50.
< 10 nM

----------
- Target Under Test: KRAS G12C and cRAF (Ras-binding domain) interaction (Homo sapiens (Human), UniProt P01116, C118S/C51S/C80L/G12C)
- Run Description: Inhibition of KRAS G12C and cRAF binding (AlphaScreen)
- Cond: additional exemplary compounds; KRAS G12C and cRAF binding; read-out: RAF1 RBD IC50
pIC50: −log10 of the molar value.
The following compounds are shown together with reported pIC50 values.

Completed entries (count: 3):
# Compound, Experimental Result
measured = [
    ("CCN(C/C=C/S(=O)(=O)CCN(C)c1nc(OCC23CCCN2CCC3)nc2c(F)c(-c3cccc4cccc(Cl)c34)ncc12)CCOC", "7.00 to 8.00"),
    ("CC(C)c1noc(/C=C/C(=O)N2C3CC2CN(c2nc(OC[C@@]45CCCN4C[C@H](F)C5)nc4c(F)c(-c5cccc6cccc(Cl)c56)ncc24)C3)n1", "< 6.30"),
    ("C=CC(=O)N1CC[C@H](C)[C@H](Nc2nc(OC[C@@]34CCCN3C[C@H](F)C4)nc3c(F)c(-c4cccc5cccc(Cl)c45)ncc23)C1", "< 6.30"),
]

Given C=CC(=O)N1CC(CN(C)c2nc(OC[C@@]34CCCN3C[C@H](O)C4)nc3c(F)c(-c4cccc5cccc(Cl)c45)ncc23)C1 , respond with its pIC50.
< 6.30

Given C=CC(=O)CCNc1nc(OC[C@@H]2CCCN2C)nc2c1CCN(c1cccc3ccccc13)C2 , respond with its pIC50.
< 6.30

Given CCN(CC)C/C=C/S(=O)(=O)CCN(C)c1nc(OC[C@@]23CCCN2C[C@H](F)C3)nc2c1CCN(c1cccc3cccc(Cl)c13)C2 , respond with its pIC50.
> 8.00

Given C=CC(=O)N1CCC[C@@H](N(C)c2nc(OCC34CCCN3CCC4)nc3c2CCN(c2cccc4cccc(Cl)c24)C3)C1 , respond with its pIC50.
< 6.30

Given Cc1nsc(/C=C/C(=O)N2C[C@@H](F)[C@H](N(C)c3nc(OC[C@@]45CCCN4C[C@H](F)C5)nc4c(F)c(-c5cccc6cccc(Cl)c56)ncc34)C2)n1 , respond with its pIC50.
< 6.30

Given C=CC(=O)N1[C@H]2CC[C@@H]1[C@@H](N(C)c1nc(OC[C@@]34CCCN3C[C@H](F)C4)nc3c1CCN(c1cccc4cccc(Cl)c14)C3)C2 , respond with its pIC50.
< 6.30

Given C=CC(=O)N1CC[C@@H]1CN(C)c1nc(OC[C@@]23CCCN2C[C@H](F)C3)nc2c(F)c(-c3cccc4cccc(Cl)c34)ncc12 , respond with its pIC50.
< 6.30

Given C=CC(=O)N1C[C@@H](C)[C@@H](N(C)c2nc(OC[C@@]34CCCN3C[C@H](F)C4)nc3c(F)c(-c4cccc5cccc(Cl)c45)ncc23)C1 , respond with its pIC50.
< 6.30

Given C=CC(=O)N1C[C@H](N(C)c2nc(OC[C@@]34CCCN3C[C@H](F)C4)nc3c(F)c(-c4cccc5cccc(Cl)c45)ncc23)CC1C#N (some centres unmarked) , respond with its pIC50.
7.00 to 8.00

Given C=CC(=O)N1C[C@@H](O)[C@@H](Nc2nc(OC[C@@]34CCCN3C[C@H](F)C4)nc3c(F)c(-c4cccc5cccc(Cl)c45)ncc23)C1 , respond with its pIC50.
< 6.30

Given CN(C)C/C=C/S(=O)(=O)CCN(C)c1nc(OC[C@@]23CCCN2C[C@H](F)C3)nc2c1CCN(c1cccc3cccc(Cl)c13)C2 , respond with its pIC50.
> 8.00

Given C=CC(=O)N1CCC(N(c2nc(OC[C@@]34CCCN3C[C@H](F)C4)nc3c(F)c(-c4cccc5cccc(Cl)c45)ncc23)C2CC2)C1 (some centres unmarked) , respond with its pIC50.
< 6.30

----------
- Target Under Test: KRAS G12C and cRAF (Ras-binding domain) interaction (Homo sapiens (Human), UniProt P01116, C118S/C51S/C80L/G12C)
- Run Description: Inhibition of KRAS G12C and cRAF binding (AlphaScreen)
- Cond: GMPPNP-loaded KRAS G12C, 19-20 hours incubation with compound; read-out: IC50 (Inhibition of KRAS G12C and cRAF Binding)
pIC50: −log10 of the molar value.
Measure: pIC50

Completed entries (count: 4):
# Compound, Experimental Result
records = [
    ("CN(c1nc(OC[C@@]23CCCN2C[C@H](F)C3)nc2c(F)c(-c3cccc4ccc(F)c(Cl)c34)ncc12)[C@@H]1CCN(C(=O)/C=C/CN2CCOCC2)C1 [Example 96]", "6.30 to 7.00"),
    ("Cc1ncc(F)c(/C=C/C(=O)N2CC[C@@H](N(C)c3nc(OCC45CCCN4CCC5)nc4c(F)c(-c5cccc6ccc(F)c(Cl)c56)ncc34)C2)n1 [Example 244]", "6.30 to 7.00"),
    ("C#Cc1c(F)ccc2cccc(-c3ncc4c(N(C)[C@@H]5CCN(C(=O)/C=C/CN6C7COCC6C7)C5)nc(OC[C@@]56CCCN5C[C@H](F)C6)nc4c3F)c12 [Example 293]", "> 8.00"),
    ("COC(=O)/C=C/C(=O)N1CC[C@H](N(C)c2nc(OC[C@@H]3CCCN3C)nc3c(F)c(-c4cccc5cccc(Cl)c45)ncc23)C1 [Example 26]", "< 6.30"),
]

Given C=CC(=O)N1CC[C@@H](N(C)c2nc(OC[C@@]34CCCN3C[C@H](F)C4)nc3c(F)c(-c4cccc5cccc(C#CC)c45)ncc23)C1 [Example 306] , respond with its pIC50.
< 6.30

Given CN(c1nc(OC[C@@]23CCCN2C[C@H](F)C3)nc2c(F)c(-c3cccc4ccc(F)c(Cl)c34)ncc12)[C@@H]1CCN(C(=O)C#CCN2CC(F)C2)C1 [Example 225] , respond with its pIC50.
7.00 to 8.00

Given C=CC(=O)N1CC[C@@H](N(C)c2nc(OC[C@@]34CCCN3C[C@H](F)C4)nc3c(F)c(-c4cccc5ccc(F)c(CC)c45)ncc23)C1 [Example 185] , respond with its pIC50.
6.30 to 7.00

Given CCN(CCNC(=O)/C=C/C(=O)OC)c1nc(OC[C@@H]2CCCN2C)nc2c1CCN(c1cccc3cccc(Cl)c13)C2 [Example 12] , respond with its pIC50.
< 6.30

Given CCc1noc(/C=C/C(=O)N2CC(CN(C)c3nc(OCC45CCCN4CCC5)nc4c3CCN(c3cccc5cccc(Cl)c35)C4)C2)n1 [Example 168] , respond with its pIC50.
7.00 to 8.00

Given COC(=O)/C=C/C(=O)N1C[C@H](N(C)c2nc(OC[C@@H]3CCCN3C)nc3c2CCN(c2cccc4cccc(Cl)c24)C3)C[C@H]1C [Example 17] , respond with its pIC50.
7.00 to 8.00

Given C#Cc1c(F)ccc2cccc(-c3ncc4c(N(C)[C@@H]5CCN(C(=O)/C=C/CN6CC[C@H](F)C6)C5)nc(OC[C@@]56CCCN5C[C@H](F)C6)nc4c3F)c12 [Example 288] , respond with its pIC50.
7.00 to 8.00

Given CN(C)C/C=C/S(=O)(=O)CCN(C)c1nc(OC[C@@H]2CCCN2C)nc2c1CCN(c1cccc3cccc(Cl)c13)C2 [Example 52] , respond with its pIC50.
7.00 to 8.00
